- Tested on: MCF10A
- experimentalProtocol: 5+ nucleoli phenotype percent effect (relative to siNT 0% and siKIF11 100%); higher = more cells with five or more nucleoli
- particulars: 20 nM; 72 h
readoutLabel: 5+ nucleoli phenotype percent effect (%)
Numeric answer only, unit % assumed.

> print(dat)
                              sequenceinput  measuredresult
1          UUGGAGGCGUGGGUUUU [hsa-miR-4443]           -29.8
2  UUGAAGAGGAGGUGCUCUGUAGC [hsa-miR-4709-3p]             -33
3     CACUGGCUCCUUUCUGGGUAGA [hsa-miR-892b]           -22.8

Quick note, 5+ nucleoli phenotype percent effect for GUGGGUGCUGGUGGGAGCCGUG [hsa-miR-6741-5p] landed at -22.2

For record AGCAGCAUUGUACAGGGCUAUGA [hsa-miR-103a-3p] the listed 5+ nucleoli phenotype percent effect is -29

For record UGGCUGUUGGAGGGGGCAGGC [hsa-miR-4687-3p] the listed 5+ nucleoli phenotype percent effect is -1.42

The measured 5+ nucleoli phenotype percent effect associated with UUGCCAGGGCAGGAGGUGGAA [hsa-miR-5006-5p] reads -13.7

The measured 5+ nucleoli phenotype percent effect associated with CUGCCAAUUCCAUAGGUCACAG [hsa-miR-192-3p] reads -40.8

* * *

- System: MCF10A
- experimentalProtocol: one-nucleolus phenotype percent effect (relative to siNT 0% and siNOL11 100%); higher = more cells with one nucleolus (ribosome biogenesis inhibition)
- particulars: 20 nM; 72 h
readoutLabel: one-nucleolus phenotype percent effect (%)
Provide only the numeric value, understood in %.

Consider the reported one-nucleolus phenotype percent effect for these sequences:
> print(dat)
                              sequenceinput  measuredresult
1  UGAGUACCGCCAUGUCUGUUGGG [hsa-miR-1911-5p]           -20.9
2        CGGCGCGACCGGCCCGGGG [hsa-miR-4634]           -14.3

Now for another entry.
Measured one-nucleolus phenotype percent effect, AGCUUCCAUGACUCCUGAUGGA [hsa-miR-2115-5p] : -7.01

* * *

- System: MCF10A
- experimentalProtocol: 5+ nucleoli phenotype percent effect (relative to siNT 0% and siKIF11 100%); higher = more cells with five or more nucleoli
- particulars: 20 nM; 72 h
readoutLabel: 5+ nucleoli phenotype percent effect (%)
Numeric only. Scale: %

> print(dat)
                              sequenceinput  systemundertest                          readoutlabel  unitofmeasurement  measuredresult
1      UUAGUCCUGCCUGUAGGUUUA [hsa-miR-4540]           MCF10A  5+ nucleoli phenotype percent effect                  %           -37.9
2    AGGAAAUGAGGCUGGCUAGGAGC [hsa-miR-5093]           MCF10A  5+ nucleoli phenotype percent effect                  %          0.0169
3    AUUGAAACCUCUAAGAGUGGA [hsa-miR-510-3p]           MCF10A  5+ nucleoli phenotype percent effect                  %            8.91
4   CUGGGAGGGGCUGGGUUUGGC [hsa-miR-6779-5p]           MCF10A  5+ nucleoli phenotype percent effect                  %             2.1
5      AAAGUGCUUCCUUUUAGAGGG [hsa-miR-520b]           MCF10A  5+ nucleoli phenotype percent effect                  %            70.5
6  GGGACCAUCCUGCCUGCUGUGG [hsa-miR-3619-3p]           MCF10A  5+ nucleoli phenotype percent effect                  %            20.9
7  AGGAGCUAUCCACUCCAGGUGUCC [hsa-miR-6500-5p]           MCF10A  5+ nucleoli phenotype percent effect                  %             -33
8     UUCACAAGGAGGUGUCAUUUAU [hsa-miR-513b]           MCF10A  5+ nucleoli phenotype percent effect                  %           -29.7

5+ nucleoli phenotype percent effect of AGCUACAUUGUCUGCUGGGUUUC [hsa-miR-221-3p] , assay on MCF10A, is -17.8

Field 5+ nucleoli phenotype percent effect (system: MCF10A) for entry AGGCGAUGUGGGGAUGUAGAGA [hsa-miR-6717-5p] = -15.8

Entry AAGCGACCAUGAUGUAACUUCA [hsa-miR-4670-5p] , tested on MCF10A, has a reported 5+ nucleoli phenotype percent effect of -4.37

5+ nucleoli phenotype percent effect of AGGCACGGUGUCAGCAGGC [hsa-miR-564] , assay on MCF10A, is -12.9

Value (5+ nucleoli phenotype percent effect, MCF10A) for record AGCUUCUUUACAGUGCUGCCUUG [hsa-miR-103a-2-5p] = -36.6

For the sequence CUUGAGUCGUGCCUUUCUGAAUG [hsa-miR-8081] , the measured 5+ nucleoli phenotype percent effect on MCF10A was -17.9

The reported MCF10A 5+ nucleoli phenotype percent effect of UAAGUGCUUCCAUGUUUCAGUGG [hsa-miR-302c-3p] is 52.1

Form: item UUUUAAGGACACUGAGGGAUC [hsa-miR-7856-5p] ; test system MCF10A; 5+ nucleoli phenotype percent effect: 57.8

Reading of 5+ nucleoli phenotype percent effect for UUCUGCCUCUGUCCAGGUCCUU [hsa-miR-5001-3p] with MCF10A: -28.1

Reported 5+ nucleoli phenotype percent effect (MCF10A) for entry ACUGGGGGCUUUCGGGCUCUGCGU [hsa-miR-637] is -19.4

MCF10A assay, sequence UCAAGAGCAAUAACGAAAAAUGU [hsa-miR-335-5p] , recorded 5+ nucleoli phenotype percent effect = 37.7

Entry CCCCGCCACCGCCUUGG [hsa-miR-4258] , MCF10A data, 5+ nucleoli phenotype percent effect value: 29.4

Here CAAGGGACCAAGCAUUCAUUAU [hsa-miR-4475] was tested on MCF10A, and its 5+ nucleoli phenotype percent effect came to -16.1

Tested on MCF10A, the item GGAUGGUUGGGGGCGGUCGGCGU [hsa-miR-8069] showed 5+ nucleoli phenotype percent effect equal to -16.7

Reading of 5+ nucleoli phenotype percent effect for UGUCUCUGCUGGGGUUUCU [hsa-miR-593-3p] with MCF10A: -39.2

Bench note, MCF10A: entry GUGGACCUGGCUGGGAC [hsa-miR-4535] , its 5+ nucleoli phenotype percent effect = 17.4

Short answer on MCF10A for AUCGGGAAUGUCGUGUCCGCCC [hsa-miR-425-3p] , 5+ nucleoli phenotype percent effect: -1.09

Test item UGCUUAAGUUGUACCAAGUAU [hsa-miR-4720-3p] ; MCF10A; reported 5+ nucleoli phenotype percent effect was -20.7

UCUGAGAGAGCUCGAUGGCAG [hsa-miR-6761-5p] tested on MCF10A gave 5+ nucleoli phenotype percent effect: 9.71

Entry CAGGGCCCUGGCUUUAGCAGA [hsa-miR-7160-3p] ; assay system MCF10A; 5+ nucleoli phenotype percent effect recorded at -4.58
